test system: LNCaP tumor xenograft-bearing CB17-SCID mice; assay type: in vivo, mouse; conditions: 24 h p.i.
assay.metric: Biodistribution Pancreas

Recorded Biodistribution Pancreas, per entry:
Prompt: Give a short answer stating reported Biodistribution Pancreas for CSCC[C@H](NC(=O)CC[C@H](NC(=O)N[C@@H](CCC(=O)N[C@H](CCCNC(=O)CCC(=O)NCCCC[C@@H](NC(=O)[C@@H](CNC(=O)c1ccc([Si](F)(C(C)(C)C)C(C)(C)C)cc1)NC(=O)CN1CCN(CC(=O)[O-])CCN(CC(=O)[O-])CCN(CC(=O)[O-])CC1)C(=O)O)C(=O)O)C(=O)O)C(=O)O)C(=O)O.[Lu+3] [^natLu/[^177Lu]Lu-5] .
Completion: 0.01 ± 0.00 % ID/g

Prompt: Supply measured Biodistribution Pancreas of CC(C)(C)[Si](F)(c1ccc(C(=O)NC[C@@H](NC(=O)CN2CCN(CC(=O)[O-])CCN(CC(=O)[O-])CCN(CC(=O)[O-])CC2)C(=O)N[C@H](CCCCNC(=O)CCC(=O)NCCC[C@@H](NC(=O)CC[C@H](NC(=O)O[C@@H](CCC(=O)O)C(=O)O)C(=O)O)C(=O)O)C(=O)O)cc1)C(C)(C)C.[Lu+3] [^natLu/[^177Lu]Lu-3] in your reply.
Completion: 0.02 ± 0.01 % ID/g

Prompt: Read the entry CCCCCCC(NC(=O)C(CCC(=O)O)NC(=O)NC(CCC(=O)NC(CCCNC(=O)CCC(=O)NCCCCC(NC(=O)C(CNC(=O)c1ccc([Si](F)(C(C)(C)C)C(C)(C)C)cc1)NC(=O)CN1CCN(CC(=O)[O-])CCN(CC(=O)[O-])CCN(CC(=O)[O-])CC1)C(=O)O)C(=O)O)C(=O)O)C(=O)O.[Lu+3] (centres unmarked) [^natLu/[^177Lu]Lu-7] and write its reported Biodistribution Pancreas.
Completion: 0.02 ± 0.00 % ID/g

Prompt: Give reported Biodistribution Pancreas value for C#CC[C@H](NC(=O)N[C@@H](CCC(=O)N[C@H](CCCNC(=O)CCC(=O)NCCCC[C@@H](NC(=O)[C@@H](CNC(=O)c1ccc([Si](F)(C(C)(C)C)C(C)(C)C)cc1)NC(=O)CN1CCN(CC(=O)[O-])CCN(CC(=O)[O-])CCN(CC(=O)[O-])CC1)C(=O)O)C(=O)O)C(=O)O)C(=O)O.[Lu+3] [^natLu/[^177Lu]Lu-10]
Completion: 0.01 ± 0.01 % ID/g

# evaluate next
Prompt: Hello, please tell me recorded Biodistribution Pancreas for this one: CC(C)(C)[Si](F)(c1ccc(C(=O)NC[C@@H](NC(=O)CN2CCN(CC(=O)[O-])CCN(CC(=O)[O-])CCN(CC(=O)[O-])CC2)C(=O)N[C@H](CCCCNC(=O)CCC(=O)NCCC[C@@H](NC(=O)CC[C@H](NC(=O)N[C@@H](CCc2nnn[nH]2)C(=O)O)C(=O)O)C(=O)O)C(=O)O)cc1)C(C)(C)C.[Lu+3] [^natLu/[^177Lu]Lu-11]
Completion: 0.02 ± 0.00 % ID/g

Reference for the values: paper PMC7910394
